FYI, the data here is from ChEMBL document CHEMBL5390310.

TARGET_OR_SYSTEM: von Hippel-Lindau disease tumor suppressor/Bromodomain-containing protein 4 (Homo sapiens, UniProt O60885+P40337)
Sequence (P40337 whole entry, looked up, other chains not shown): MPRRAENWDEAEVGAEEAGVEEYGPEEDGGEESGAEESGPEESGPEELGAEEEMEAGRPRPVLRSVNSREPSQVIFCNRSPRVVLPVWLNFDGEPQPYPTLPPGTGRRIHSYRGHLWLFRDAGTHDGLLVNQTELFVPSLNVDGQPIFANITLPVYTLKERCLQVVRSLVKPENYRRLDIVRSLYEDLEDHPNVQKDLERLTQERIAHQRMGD
EXPERIMENT: Protac activity at VHL E3 ligase/BRD4 in HEK293 cells assessed as degradation maximum by HiBiT assay relative to control
Assay type: cell-based
ASSAY_READOUT: Emax (%)
One number for each entry, in %.

Consider the worked cases shown below.
COMPOUND: Cc1sc2c(c1C)C(c1ccc(Cl)cc1)=N[C@@H](CC(=O)N1CCN(CCCC3CCN(c4ccc5c(c4)CN(C4CCC(=O)NC4=O)C5=O)CC3)CC1)c1nnc(C)n1-2 (stereo in doubt; 11P)
ASSAY_READOUT: Emax
EXPERIMENTAL_VALUE: 99
--
COMPOUND: Cc1sc2c(c1C)C(c1ccc(Cl)cc1)=N[C@@H](CC(=O)N1CCC3(CCN(CC4CCN(c5ccc6c(c5)CN(C5CCC(=O)NC5=O)C6=O)CC4)CC3)CC1)c1nnc(C)n1-2 (stereo in doubt; 3P)
ASSAY_READOUT: Emax
EXPERIMENTAL_VALUE: 80
--
COMPOUND: Cc1sc2c(c1C)C(c1ccc(Cl)cc1)=N[C@@H](CC(=O)N1CCC(CCN3CCC4(CC3)CCN(c3ccc5c(c3)CN(C3CCC(=O)NC3=O)C5=O)CC4)CC1)c1nnc(C)n1-2 (stereo in doubt; 2P)
ASSAY_READOUT: Emax
EXPERIMENTAL_VALUE: 90
--
COMPOUND: Cc1sc2c(c1C)C(c1ccc(Cl)cc1)=N[C@@H](CC(=O)NCCCCCC(=O)N1CCN(CCCC3CCN(c4ccc5c(c4)CN(C4CCC(=O)NC4=O)C5=O)CC3)CC1)c1nnc(C)n1-2 (stereo in doubt; 10P)
ASSAY_READOUT: Emax
EXPERIMENTAL_VALUE: 99
--
COMPOUND: Cc1ncsc1-c1ccc(CNC(=O)[C@@H]2C[C@@H](O)CN2C(=O)[C@@H](NC(=O)CN2CCN(C(=O)CCCCCNC(=O)C[C@@H]3N=C(c4ccc(Cl)cc4)c4c(sc(C)c4C)-n4c(C)nnc43)CC2)C(C)(C)C)cc1 (stereo in doubt)
ASSAY_READOUT: Emax
EXPERIMENTAL_VALUE: 101
--
COMPOUND: Cc1sc2c(c1C)C(c1ccc(Cl)cc1)=N[C@@H](CC(=O)NCCCCCC(=O)NCCCC#Cc1cccc3c1CN(C1CCC(=O)NC1=O)C3=O)c1nnc(C)n1-2 (stereo in doubt; 9P)
ASSAY_READOUT: Emax
EXPERIMENTAL_VALUE: 83

For every item below, please supply its Emax.
1. Cc1sc2c(c1C)C(c1ccc(Cl)cc1)=N[C@@H](CC(=O)NCCCCCC(=O)N1CCN(CCCC3CCN(c4ccc5c(c4)CN(C4CCC(=O)NC4=O)C5=O)CC3)CC1)c1nnc(C)n1-2 (stereo in doubt)
2. Cc1sc2c(c1C)C(c1ccc(Cl)cc1)=N[C@@H](CC(=O)N1CCC(CCN3CCC4(CC3)CCN(c3ccc5c(c3)CN(C3CCC(=O)NC3=O)C5=O)CC4)CC1)c1nnc(C)n1-2 (stereo in doubt)
3. Cc1sc2c(c1C)C(c1ccc(Cl)cc1)=N[C@@H](CC(=O)N1CCC3(CC1)CCN(c1ccc4c(c1)CN(C1CCC(=O)NC1=O)C4=O)CC3)c1nnc(C)n1-2 (stereo in doubt)
4. Cc1sc2c(c1C)C(c1ccc(Cl)cc1)=N[C@@H](CC(=O)N1CCN(CCC3CCN(c4ccc5c(c4)CN(C4CCC(=O)NC4=O)C5=O)CC3)CC1)c1nnc(C)n1-2 (stereo in doubt; 6P)

Result string:
100
100
100
79
